system: 128128-338-R-J1-PDC spheroids, viability % test/control; experiment: Anticancer human tumor 128128-338-R-J1-PDC patient-derived melanoma cell line growth inhibition [TAK]; settings: second compound 0.949 µM; first compound 0.000316 µM; stronger effect = lower value; spheroids with HUVEC and MSC;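 also: spheroids exposed to compounds for 7 days; 100% = DMSO vehicle wells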
For each entry below, report its viability, T/C value.
Value expressed in %; do not type the unit.

The compound CC(C)CC(NC(=O)CNC(=O)c1cc(Cl)ccc1Cl)B1OC(=O)CC(CC(=O)O)(C(=O)O)O1 (centres undefined) + CC(C)NCC(C(=O)N1CCN(c2ncnc3c2C(C)CC3O)CC1)c1ccc(Cl)cc1 showed viability, T/C equal to 98.6

The compound CC(C)CC(NC(=O)C(Cc1ccccc1)NC(=O)c1cnccn1)B(O)O (centres undefined) + CC(C)NCC(C(=O)N1CCN(c2ncnc3c2C(C)CC3O)CC1)c1ccc(Cl)cc1 showed viability, T/C equal to 109

The compound CC(C)n1nc(-c2ccc3oc(N)nc3c2)c2c(N)ncnc21 + CC(C)NCC(C(=O)N1CCN(c2ncnc3c2C(C)CC3O)CC1)c1ccc(Cl)cc1 showed viability, T/C equal to 88.9

The compound COC1CC2CCC(C)C(O)(O2)C(=O)C(=O)N2CCCCC2C(=O)OC(C(C)CC2CCC(OCCO)C(OC)C2)CC(=O)C(C)C=C(C)C(O)C(OC)C(=O)C(C)CC(C)C=CC=CC=C1C (centres undefined) + CC(C)NCC(C(=O)N1CCN(c2ncnc3c2C(C)CC3O)CC1)c1ccc(Cl)cc1 showed viability, T/C equal to 110
